Recorded values, source patent US20180066015A1.

TARGET ENTITY: recombinant thrombin
ASSAY PROTOCOL: chromogenic inhibition assay
pKi: −log10 of the molar value. Primed or numbered codes have the meaning given here. *: point of attachment. kt = C-terminal ketothiazole, c1csc(*)n1; kt″ = ketothiazole, c1csc(*)n1
PROPERTY MEASURED: pKi

## Input Can you share its pKi? I mean this binder: Ac-SWLR-kt (SMILES CC(=O)N[C@@H](CO)C(=O)N[C@@H](Cc1c[nH]c2ccccc12)C(=O)N[C@@H](CC(C)C)C(=O)N[C@@H](CCCNC(=N)N)C(=O)c1nccs1) [Ac-SWLR(SEQ ID NO: 17)-kt]
## Output 5.43

## Input Lookup Ac-KQLR-{kt″} (SMILES CC(=O)N[C@@H](CCCCN)C(=O)N[C@@H](CCC(N)=O)C(=O)N[C@@H](CC(C)C)C(=O)N[C@@H](CCCNC(=N)N)C(=O)c1nccs1) [Ac-KQLR(SEQ ID NO: 1)-kt]
## Output < 4.70

## Input Lookup Ac-SKLR-kt (SMILES CC(=O)N[C@@H](CO)C(=O)N[C@@H](CCCCN)C(=O)N[C@@H](CC(C)C)C(=O)N[C@@H](CCCNC(=N)N)C(=O)c1nccs1) [Ac-SKLR(SEQ ID NO: 10)-kt]
## Output < 4.70

## Input Lookup Ac-SKFR-kt (SMILES CC(=O)N[C@@H](CO)C(=O)N[C@@H](CCCCN)C(=O)N[C@@H](Cc1ccccc1)C(=O)N[C@@H](CCCNC(=N)N)C(=O)c1nccs1) [Ac-SKFR(SEQ ID NO: 13)-kt]
## Output < 5.70

## Input Lookup Ac-RQLR-kt (SMILES CC(=O)N[C@@H](CCCNC(=N)N)C(=O)N[C@@H](CCC(N)=O)C(=O)N[C@@H](CC(C)C)C(=O)N[C@@H](CCCNC(=N)N)C(=O)c1nccs1) [Ac-RQLR(SEQ ID NO: 6)-kt]
## Output < 4.70
